- assayed-target: HIF-1α PAS-B (Homo sapiens, UniProt Q16665)
- Sequence (Q16665 238-349): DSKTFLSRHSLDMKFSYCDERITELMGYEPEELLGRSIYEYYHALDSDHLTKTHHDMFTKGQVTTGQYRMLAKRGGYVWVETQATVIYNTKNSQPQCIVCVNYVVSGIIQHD
- assay-text: MST
pKd: −log10 of the molar value. *1 amine or outer side, *2 acyl side, *3 side chain or, on linkers, in order; H or OH if unused. [ ]: non-standard residue; d: D form. Phe(4-OMe) = COc1ccc(C[C@H](N[*:1])C(=O)[*:2])cc1; Phe(4-I) = N[C@@H](Cc1ccc(I)cc1)C(=O)O; 1Nal = N[C@@H](Cc1cccc2ccccc12)C(=O)O; hPhe = N[C@@H](CCc1ccccc1)C(=O)O; 4Pal = N[C@@H](Cc1ccncc1)C(=O)O; Phg = N[C@H](C(=O)O)c1ccccc1
measured-quantity: pKd

• cyclo(CRLII[Phe(4-I)]) (SMILES CC[C@H](C)[C@@H]1NC(=O)[C@H](CC(C)C)NC(=O)[C@H](CCCNC(=N)N)NC(=O)[C@H](CS)NC(=O)[C@H](Cc2ccc(I)cc2)NC(=O)[C@H]([C@@H](C)CC)NC1=O) [cyclo-CRLII(4-iodo)F] = 6.09
• CRVIIF (head-to-tail cyclic peptide) [cyclo-CRVIIF] = 4.19
• CRLLIF (head-to-tail cyclic peptide) [cyclo-CRLLIF] = 4.84
• cyclo(CRLII[4Pal]) (SMILES CC[C@H](C)[C@@H]1NC(=O)[C@H](CC(C)C)NC(=O)[C@H](CCCNC(=N)N)NC(=O)[C@H](CS)NC(=O)[C@H](Cc2ccncc2)NC(=O)[C@H]([C@@H](C)CC)NC1=O) [cyclo-CRLII(4-Pal)] = 4.40
• cyclo(CRLII[Phe(4-OMe)]) [cyclo-CRLII(4-OMe)F] = 4.95
• CRLIIF (head-to-tail cyclic peptide) [cyclo-CRLIIF] = 5.42
• cyclo(CRLII[Phg]) (SMILES CC[C@H](C)[C@@H]1NC(=O)[C@H](CC(C)C)NC(=O)[C@H](CCCNC(=N)N)NC(=O)[C@H](CS)NC(=O)[C@H](c2ccccc2)NC(=O)[C@H]([C@@H](C)CC)NC1=O) [cyclo-CRLII(Phg)] = 5.24
• CKLIIF (head-to-tail cyclic peptide) [cyclo-CKLIIF] = 5.59
• CKLLIF (head-to-tail cyclic peptide) [cyclo-CKLLIF] = 4.92
• cyclo(CRLII[1Nal]) (SMILES CC[C@H](C)[C@@H]1NC(=O)[C@H](CC(C)C)NC(=O)[C@H](CCCNC(=N)N)NC(=O)[C@H](CS)NC(=O)[C@H](Cc2cccc3ccccc23)NC(=O)[C@H]([C@@H](C)CC)NC1=O) [cyclo-CRLII(1-Nal)] = 5.77
• cyclo(CRLII[Phe(4-Bz)]) [cyclo-CRLII(4-Bz)F] = 5.80
• cyclo(CRLII[dF]) (SMILES CC[C@H](C)[C@@H]1NC(=O)[C@H](CC(C)C)NC(=O)[C@H](CCCNC(=N)N)NC(=O)[C@H](CS)NC(=O)[C@@H](Cc2ccccc2)NC(=O)[C@H]([C@@H](C)CC)NC1=O) [cyclo-CRLII(D-F)] = 5.21
• cyclo(CRLII[hPhe]) (SMILES CC[C@H](C)[C@@H]1NC(=O)[C@H](CC(C)C)NC(=O)[C@H](CCCNC(=N)N)NC(=O)[C@H](CS)NC(=O)[C@H](CCc2ccccc2)NC(=O)[C@H]([C@@H](C)CC)NC1=O) [cyclo-CRLII(hF)] = 5.92

Data provenance is paper PMC10996005.
